Value source: PubChem BioAssay (NCI)

compounds and their reported GI50
- Tested on: K-562 leukemia
- MEASUREMENT_DESCRIPTION: NCI tumour cell line growth inhibition, 48 h

Please review the entries below; each comes with its answer.
COMPOUND	TGT	RESULT_TYPE	VALUE_OBSERVED
O=C(N=Nc1c(O)[nH]c2ccccc12)c1oc2ccccc2c1CN1CCN(c2ccccc2)CC1	K-562 leukemia	GI50	1.98 µM
O=C(NNc1ccc(F)cc1)C1CCC(CNS(=O)(=O)c2ccc(Cl)c(Cl)c2)CC1 (centres undefined)	K-562 leukemia	GI50	1.71 µM
COC(=O)c1ccc2c(c1)C(=O)c1c-2n(C)c(=O)c2cc(OC)c(OC)cc12	K-562 leukemia	GI50	> 50 µM

Requested read-out: GI50. Entry: NC1CCC(Nc2nc(NCc3cc(Cl)ccc3O)c3ncn(C4CCCC4)c3n2)CC1 (centres undefined)
0.175 µM

What about this compound? "N.N.O=P([O-])([O-])CN(CCN(CP(=O)([O-])[O-])CP(=O)([O-])[O-])CP(=O)([O-])[O-].[Pt+2]"
> 100 µM

Another compound: CC1SC2(CCC(c3ccccc3)CC2)N(NC(=O)c2[nH]c3ccc(F)cc3c2-c2ccccc2)C1=O (centres undefined)
2.11 µM

Follow-up item: "c1ccc(Nc2nc(-c3ccccn3)cs2)nc1"
0.413 µM

Ok, now "C1COCCOCCOCCOCCOCCO1.[Cl][Sn]([Cl])([c]1ccccc1)[c]1ccccc1"
2.44 µM

What do you have for CSc1ccc2c(c1)N(CCC1CCCCN1C)c1ccccc1S2 (centres undefined) ?
2.13 µM
